meta.source: patent US20260068884A1

# Test system: rape sclerotinia sclerotiorum
# procedure summary: plate method, inhibition of hypha growth (in-vessel bioassay)
# Type: cell-based
# stated conditions: Sclerotinia sclerotiorum
This listing pairs molecules with measured EC50.
readout: EC50 (µg/mL)

C=C(CN(C(=O)c1c(C(F)F)nn(C)c1F)C1CC1)c1ccc(Cl)cc1Cl | 0.01
N#Cc1c[nH]cc1-c1cccc2c1OC(F)(F)O2 | 0.015
N#Cc1c(Cl)c(Cl)c(Cl)c(C#N)c1Cl | 0.82
CCCN(CCOc1c(Cl)cc(Cl)cc1Cl)C(=O)n1ccnc1 | 0.08
CC(C)(C)C(O)(CCc1ccc(Cl)cc1)Cn1cncn1 (centres unmarked) | 0.1
